Value source: patent US20250034594A1

tested on: gene editing with dCas9; assay: Screen of 322 new SSAP proteins, gene editing activity with dCas9 (Table 5); assay type: cell-based; conditions: normalized
metric: dCas9 with SSAP activity (normalized)

molecule	result
SSAP_302: SEQ ID NO: 471; Clostridium saccharobutylicum (protein, listed as Clostridium saccharobutylicum) ATNSSLKNQLIEKEQTTVNVQETMFKNLINSDDVKSKFTEVLKDKAIQYINSIINLVNSDKDLIECEPKSIIDACMSAVSLDLSVDKNLEYVEIIPYKKKANFQLGYRGYIQLLLRTGEYKSVNIIEVYEGQLKSWNQLAEEFDIDFTYKKSDAVIGYAGYFEMLNGFRKSVYWSKENMDALRENSFKSDTRWNNDYKAMAKRAVIRNMISKWGSLSIEMEKAYCEDLNTDKFVNGN	−0.772
SSAP_97: SEQ ID NO: 266; Gilliamella apicola (protein, listed as Gilliamella apicola) SEQNQPPIAKSDLEKTQLTNQDKKPATLAELVNSPKIKNQLAMALPKHMNPDRMARIVTTEIRKTPALADSNIQSFLGAVVQCSQLGLEPGGALGHAYLLPFGNGKAKDGKSNVQLIIGYRGMIDLARRSGQIISISARTVREGDDFHYEYGLNEDLKHTPKADESAPITYVYAVARLKDGGSQFEVMTFNQIESVRKQSKAGDKGPWITHWEEMAKKTVIRRLFKYLPVSIEIQQAVILDEKAEAGISQDNEMILDADFSVVEA	−0.842
